Reference for the values: the NIST ThermoML archive (doi:10.1016/j.jct.2015.02.023)

# Assay Info: activity coefficient (dimensionless); of the first substance listed, at infinite dilution; xn = mol fraction of the nth substance listed
# Test Settings: 313.15 K; 101.33 kPa; Liquid; Chromatography; x1 = 0
Please note: activity coefficient exactly at 2 is -1. Only values below 2 get 1.

>>> df
                                   compound  class_assignment
0  c1ccncc1 [pyridine] + CCn1cc[n+](C)c1.CO[PH](=O)[O-]                 1
1  CCC(C)=O [butanone] + CCn1cc[n+](C)c1.CO[PH](=O)[O-]                -1
2  CCCCCCCCC [nonane] + CCn1cc[n+](C)c1.CO[PH](=O)[O-]                -1
3  ClCCl [dichloromethane] + CO[PH](=O)[O-].Cn1cc[n+](C)c1                 1
4  C#CCCCC [1-hexyne] + CCn1cc[n+](C)c1.CO[PH](=O)[O-]                -1
5  CCc1ccccc1 [ethylbenzene] + CO[PH](=O)[O-].Cn1cc[n+](C)c1                -1
6  CC#N [acetonitrile] + CCn1cc[n+](C)c1.CO[PH](=O)[O-]                 1
7  CCCCCCCCCCC [undecane] + CO[PH](=O)[O-].Cn1cc[n+](C)c1                -1
8  c1ccncc1 [pyridine] + CO[PH](=O)[O-].Cn1cc[n+](C)c1                -1
